target: estrogen receptor (Homo sapiens, UniProt P03372); construct: endogenous in cells; assay: AP assay (alkaline phosphatase activity in ECC-1 cells), agonist mode (absence of E2) and antagonist mode (presence of 500 pM E2); settings: AP assay, antagonist mode, 500 pM E2, 3 days
Sequence (P03372 whole entry): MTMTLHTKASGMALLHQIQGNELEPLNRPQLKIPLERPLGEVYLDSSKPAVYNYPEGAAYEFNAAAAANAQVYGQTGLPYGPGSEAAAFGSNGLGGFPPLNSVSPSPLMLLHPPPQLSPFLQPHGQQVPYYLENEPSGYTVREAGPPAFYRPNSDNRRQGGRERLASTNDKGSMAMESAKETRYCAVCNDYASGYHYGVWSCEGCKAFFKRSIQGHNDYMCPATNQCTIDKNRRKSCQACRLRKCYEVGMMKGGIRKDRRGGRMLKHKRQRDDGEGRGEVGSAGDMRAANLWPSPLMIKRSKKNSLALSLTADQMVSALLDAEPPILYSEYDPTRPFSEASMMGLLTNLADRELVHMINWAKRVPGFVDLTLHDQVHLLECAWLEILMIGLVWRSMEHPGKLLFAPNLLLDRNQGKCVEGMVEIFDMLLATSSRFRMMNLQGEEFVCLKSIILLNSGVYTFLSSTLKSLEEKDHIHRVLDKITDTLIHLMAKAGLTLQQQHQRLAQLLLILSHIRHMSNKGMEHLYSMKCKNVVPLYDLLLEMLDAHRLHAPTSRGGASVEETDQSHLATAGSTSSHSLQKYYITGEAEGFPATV
pIC50: −log10 of the molar value.
// reported pIC50 per item

smiles: C[C@@H]1Cc2c([nH]c3ccccc23)[C@@H](c2ccc3[nH]c(CN4CC(CF)C4)cc3c2)N1CC(F)(F)C(F)(F)F
result: > 6.40

Shift focus to the following entry.
query: What value of measured pIC50 is listed for "C[C@@H]1Cc2c([nH]c3ccccc23)[C@@H](c2ccc3[nH]c(CN4CC(CF)C4)cc3c2)N1CC(F)(F)C(F)F" ?
result: > 6.40
